tested on: MOLT-4; assay: Cytotoxicity against human MOLT4 cells after 72 hrs by MTT assay; type: functional, cell-based; conditions: MOLT-4, 72 h
Would you kindly list log10(IC50) for each of these molecules?
Lab note - IC50 converted to log10 from values in µM.

{"molSmiles": "COc1cccc(COc2ccc3cc(C(=O)/C=C/c4cccc(OC)c4OC)c(=O)oc3c2)c1", "property": "log10(IC50)", "measurement": 1.36}
{"molSmiles": "COc1cccc(/C=C/C(=O)c2cc3ccc(O)cc3oc2=O)c1OC", "property": "log10(IC50)", "measurement": 0.85}
{"molSmiles": "COC(=O)c1ccc(/C=C/C(=O)c2cc3cc(O)ccc3oc2=O)cc1", "property": "log10(IC50)", "measurement": 0.85}
{"molSmiles": "COc1cccc(/C=C/C(=O)c2cc3cc(O)ccc3oc2=O)c1OC", "property": "log10(IC50)", "measurement": 0.83}
{"molSmiles": "O=C(/C=C/c1ccc2c(c1)OCO2)c1cc2ccc(O)cc2oc1=O", "property": "log10(IC50)", "measurement": 1.42}
{"molSmiles": "COc1cccc(COc2ccc3cc(C(=O)/C=C/c4c(Cl)cccc4Cl)c(=O)oc3c2)c1", "property": "log10(IC50)", "measurement": 1.10}
{"molSmiles": "O=C(/C=C/c1ccc2c(c1)OCO2)c1cc2cc(O)ccc2oc1=O", "property": "log10(IC50)", "measurement": 0.30}

Quote log10(IC50) reported for COc1cccc(/C=C/C(=O)c2cc3cc(OCc4ccccc4)ccc3oc2=O)c1OC please.
1.37
